# Test system: A375 F11 clones that acquired resistance to Compound A
# Assay procedure: Cell growth inhibition assay, resistant A375 clones taken together
# Conditions used: Homo sapiens, A-375, read-out: IC50 of the combination, for Compound B

{"columns": ["Smiles string", "IC50"],
 "data": [
  ["CC(=O)Nc1cccc(-n2c(=O)n(C3CC3)c(=O)c3c(Nc4ccc(I)cc4F)n(C)c(=O)c(C)c32)c1", "0.018 to 0.039 µM"]
]}

###

# Tested on: 12R8-1 (A375 F11 clone with acquired resistance to Compound A)
# Assay procedure: Cell growth inhibition assay (Cell Titer Glo, 3 days)
# Type: cell-based
# Conditions used: Homo sapiens, A-375, 72 h, Table 3, 12R8-1: NRAS A146A/T, MEK1 WT, single agent, read-out: IC50, Single Agent, Compound C

{"columns": ["Smiles string", "Tgt", "Measure unit", "IC50"],
 "data": [
  ["COc1ncc(-c2ccc3nccc(-c4ccnnc4)c3c2)cc1NS(=O)(=O)c1ccc(F)cc1F", "12R8-1 (A375 F11 clone with acquired resistance to Compound A)", "nM", 145]
]}

All values here come from patent US20130231347A1.
